Values from PubChem BioAssay (NCATS)

- Assay target: Phenylethanolamine N-methyltransferase (Homo sapiens) (UniProt P11086)
- Sequence (P11086 whole entry, looked up): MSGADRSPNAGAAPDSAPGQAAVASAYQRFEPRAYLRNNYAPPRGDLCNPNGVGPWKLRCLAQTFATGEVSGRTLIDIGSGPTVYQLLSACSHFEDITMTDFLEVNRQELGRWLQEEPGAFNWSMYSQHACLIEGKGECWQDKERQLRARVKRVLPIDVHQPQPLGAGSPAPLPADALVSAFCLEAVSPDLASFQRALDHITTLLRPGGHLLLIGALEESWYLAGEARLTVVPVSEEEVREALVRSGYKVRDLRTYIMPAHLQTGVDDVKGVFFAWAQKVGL
- Procedure text: Confirmatory Screen for Target Class Profiling of Small Molecule Inhibitors of Methyltransferases (AID 1745852)
- Measurement setup: MTase-Glo luminescence, SAH detection, recombinant enzyme; measured here: PNMT max response; stronger effect = lower value
Result type: activity (%)
Write the answer as a number in %, unit excluded.

Value wanted: activity (Phenylethanolamine N-methyltransferase (Homo sapiens) (UniProt P11086)) of entry `CN1CCN(CCOc2cc(OC3CCOCC3)c3c(Nc4c(Cl)ccc5c4OCO5)ncnc3c2)CC1`
-10.6

Try this compound next: `COc1cc2ncnc(Nc3ccc(F)c(Cl)c3)c2cc1OCCCN1CCOCC1`
-74.4

Okay, and `CC(=O)N(C)C1(c2ccccc2)CCN(CCC[C@]2(c3ccc(Cl)c(Cl)c3)CCCN(C(=O)c3ccccc3)C2)CC1` ?
-6.52

Now give it for `O=C(Nc1ccccc1-c1cn2c(CN3CCNCC3)csc2n1)c1cnc2ccccc2n1` too.
-31.7

Here is the next compound: `COc1ccc2c(Oc3ccc(NC(=O)c4c(C)n(CC(C)(C)O)n(-c5ccccc5)c4=O)cc3F)ccnc2c1`
-1.86

Please answer likewise for `COc1cc(N2CCC(N3CCN(C)CC3)CC2)ccc1Nc1ncc(Cl)c(Nc2ccccc2S(=O)(=O)C(C)C)n1`
-27.6

Quick one: `CC1(C)CCC(CN2CCN(c3ccc(C(=O)NS(=O)(=O)c4ccc(NCC5CCOCC5)c([N+](=O)[O-])c4)c(Oc4cnc5[nH]ccc5c4)c3)CC2)=C(c2ccc(Cl)cc2)C1`
-21.8
